# Test system: SK-MEL-5 melanoma
# procedure.text: NCI-60 one-dose screen, 48 h (100 = growth as untreated, 0 = no growth, -100 = all killed)
# conditions.used: 10 µM unless noted
About 83,000 compounds went through this panel and 20% of them were active in at least one assay; those are over-represented in the sample as a whole.
Quick rule for you: growth at 70% or higher means true (1), lower means false (0).

I'd appreciate it if you could say whether COc1ccc(S(=O)(=O)NC2c3ccccc3CC2O)cc1OC (stereo not given) has growth at least equal to 70%.
true (1)

I'd appreciate it if you could say whether "CCN(CC)CCOc1ccc(/C(=C(\C)Cc2ccc(OC)cc2)c2ccc(O)cc2)cc1" has growth at least equal to 70%.
false (0)

I'd appreciate it if you could say whether "CN(C)C(=S)NN=C(c1ccccn1)c1ccccn1" has growth at least equal to 70%.
false (0)

I'd appreciate it if you could say whether "C[C@H]1c2ccccc2CN1CCCOc1cc2c(cc1OCC1CC1)C1(CCCC1)C(N)=N2" has growth at least equal to 70%.
false (0)
